Experiment: Drug level in rat plasma at 30 mg/kg, ip after 0.5 hrs
Format: ADME, organism-based
Set-up: dose 30 mg/kg, route intraperitoneal
Conditions: read-out: Drug uptake
observable: concentration at 0.5 h (µM)
One number for each entry, in µM.

stdin: So what does the record say about concentration at 0.5 h for CCC(C)(CCN1CCOCC1)N(Cc1cc2ccccc2n(C)c1=O)C(=O)C1CCCCC1 (single isomer, unassigned; enantiomer 1) ?
stdout: 4.34

----------
Assay: Drug level in rat cerebrospinal fluid at 30 mg/kg, ip after 2 hrs
Format: ADME, organism-based
Parameters: dose 30 mg/kg, route intraperitoneal
Settings: read-out: Drug uptake
observable: concentration at 2 h (nM)
Answers are plain numbers, in nM.

stdin: # lookup: concentration at 2 h of CCC(C)(CCN1CCOCC1)N(Cc1cc2ccccc2n(C)c1=O)C(=O)C1CCCCC1 (single isomer, unassigned; enantiomer 1)
stdout: 45

----------
Biological target: MDR1 (ABCB1, P-glycoprotein) (Homo sapiens, UniProt P08183)
Sequence (P08183 whole entry): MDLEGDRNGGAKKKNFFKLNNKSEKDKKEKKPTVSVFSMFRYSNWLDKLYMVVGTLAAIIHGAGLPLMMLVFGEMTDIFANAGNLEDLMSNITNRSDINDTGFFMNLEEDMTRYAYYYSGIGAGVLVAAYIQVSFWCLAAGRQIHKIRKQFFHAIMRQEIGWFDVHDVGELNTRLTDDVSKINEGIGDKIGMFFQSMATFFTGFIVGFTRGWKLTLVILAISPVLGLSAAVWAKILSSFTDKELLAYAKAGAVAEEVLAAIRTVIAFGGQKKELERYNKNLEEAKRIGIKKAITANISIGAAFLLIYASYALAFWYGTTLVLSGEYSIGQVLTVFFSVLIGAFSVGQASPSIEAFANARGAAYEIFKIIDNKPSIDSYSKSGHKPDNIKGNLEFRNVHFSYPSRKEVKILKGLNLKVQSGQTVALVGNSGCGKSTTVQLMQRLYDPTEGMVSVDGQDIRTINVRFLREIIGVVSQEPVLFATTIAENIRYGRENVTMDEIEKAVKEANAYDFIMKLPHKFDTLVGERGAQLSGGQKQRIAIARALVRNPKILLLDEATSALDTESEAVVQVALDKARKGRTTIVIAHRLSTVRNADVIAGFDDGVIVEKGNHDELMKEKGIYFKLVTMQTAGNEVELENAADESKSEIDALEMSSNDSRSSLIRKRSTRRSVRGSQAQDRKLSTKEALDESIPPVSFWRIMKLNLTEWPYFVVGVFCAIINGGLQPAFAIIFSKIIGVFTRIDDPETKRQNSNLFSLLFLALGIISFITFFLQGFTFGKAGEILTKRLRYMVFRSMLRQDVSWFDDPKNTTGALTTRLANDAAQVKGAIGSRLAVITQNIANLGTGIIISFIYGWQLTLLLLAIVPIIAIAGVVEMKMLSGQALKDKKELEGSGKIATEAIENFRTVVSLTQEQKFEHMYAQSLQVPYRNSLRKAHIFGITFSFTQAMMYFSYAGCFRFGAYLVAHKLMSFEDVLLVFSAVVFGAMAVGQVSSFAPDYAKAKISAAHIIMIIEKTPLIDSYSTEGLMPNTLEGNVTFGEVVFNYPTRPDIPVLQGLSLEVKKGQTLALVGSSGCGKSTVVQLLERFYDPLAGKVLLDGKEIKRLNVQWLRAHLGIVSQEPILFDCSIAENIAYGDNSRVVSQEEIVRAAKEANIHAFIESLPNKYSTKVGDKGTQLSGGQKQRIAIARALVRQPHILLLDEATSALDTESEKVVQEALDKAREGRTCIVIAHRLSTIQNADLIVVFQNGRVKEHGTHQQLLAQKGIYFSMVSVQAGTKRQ
Assay: Permeability of the compound assessed as MDR1-mediated directional transport ratio by cell based assay
Details: not told
// Not met strictly below 10 in efflux ratio; Met otherwise

> print(dat)
                                   compound                              targetsystem  classification
1  CCC(C)(CCN1CCCCC1)N(Cc1cc2ccccc2n(C)c1=O)C(=O)C1CCCCC1 (racemic)  MDR1 (ABCB1, P-glycoprotein) (Homo sapiens, UniProt P08183)             Met
2  Cn1c(=O)c(CN(C(=O)C2CCCCC2)C(C)(C)CCN2CCCCC2)cc2ccccc21  MDR1 (ABCB1, P-glycoprotein) (Homo sapiens, UniProt P08183)             Met
3  Cn1c(=O)c(CN(C(=O)C2CCCCC2)C(C)(C)CCN2CCOCC2)cc2ccccc21  MDR1 (ABCB1, P-glycoprotein) (Homo sapiens, UniProt P08183)         Not met
4  CCC(C)(CCN1CCC(F)CC1)N(Cc1cc2ccccc2n(C)c1=O)C(=O)C1CCCCC1 (racemic)  MDR1 (ABCB1, P-glycoprotein) (Homo sapiens, UniProt P08183)         Not met
5  CCC(C)(CCN1CCC(F)(F)CC1)N(Cc1cc2ccccc2n(C)c1=O)C(=O)C1CCCCC1 (racemic)  MDR1 (ABCB1, P-glycoprotein) (Homo sapiens, UniProt P08183)         Not met

Field: next compound
stdin: // inclusive: efflux ratio at least 10? input: CN1CCN(C2(CN(Cc3cc4ccccc4n(C)c3=O)C(=O)C3CCCCC3)CCCCC2)CC1
stdout: Met

----------
Assay: Drug level in rat cerebrospinal fluid at 30 mg/kg, ip after 0.5 hrs
Assay type: ADME, organism-based
Set-up: dose 30 mg/kg, route intraperitoneal
Conditions: read-out: Drug uptake
observable: concentration at 0.5 h (nM)
One number for each entry, in nM.

stdin: Param item = CCC(C)(CCN1CCOCC1)N(Cc1cc2ccccc2n(C)c1=O)C(=O)C1CCCCC1 (single isomer, unassigned; enantiomer 1) ; retrieve measured concentration at 0.5 h.
stdout: 101

----------
Assay: Drug level in rat brain at 30 mg/kg, ip after 0.5 hrs
Format: ADME, organism-based
Design: dose 30 mg/kg, route intraperitoneal
Details: read-out: Drug uptake
observable: concentration at 0.5 h
Provide a numeric answer, followed by its unit.

stdin: # lookup: concentration at 0.5 h of CCC(C)(CCN1CCOCC1)N(Cc1cc2ccccc2n(C)c1=O)C(=O)C1CCCCC1 (single isomer, unassigned; enantiomer 1)
stdout: 1690 nM

// provenance: ChEMBL document CHEMBL1208679
